pIC50: −log10 of the molar value.
Values of pIC50 reported for Thymidylate synthase (Mus musculus, UniProt P07607) appear below.

# Molecule, pIC50
records = [
    ("O=C(O)CCC(NC(=O)c1ccc(OCc2ccc3ncnc(O)c3c2)cc1)C(=O)O (configuration not stated)", 4.31),
    ("O=C(O)CCC(NC(=O)c1ccc(SCc2ccc3ncnc(O)c3c2)cc1)C(=O)O (configuration not stated)", 4.86),
]
